This section presents compounds with their documented viability, T/C values.
# Test system: 349418-098-R-PDC complex spheroid viability
# measurement_protocol: Anticancer human tumor 349418-098-R-PDC patient-derived lung adenocarcinoma cell line growth inhibition
# assay_context: second compound 1 µM; first compound 0.0316 µM; hits give low values

Worked examples, 6 compounds total:
compound: CC(C)CC(NC(=O)C(Cc1ccccc1)NC(=O)c1cnccn1)B(O)O (stereo unspecified) + NC1CC1c1ccc(-c2cccc(O)c2)cc1
system_name: 349418-098-R-PDC complex spheroid viability
viability, T/C: 0.29%

compound: CC1COCCN1c1cc(C2(S(C)(=N)=O)CC2)nc(-c2ccnc3[nH]ccc23)n1 (stereo unspecified) + NC1CC1c1ccc(-c2cccc(O)c2)cc1
system_name: 349418-098-R-PDC complex spheroid viability
viability, T/C: 115%

compound: Cn1ncnc1C1c2n[nH]c(=O)c3cc(F)cc(c23)NC1c1ccc(F)cc1 (stereo unspecified) + NC1CCC(NC2CC2c2ccccc2)CC1
system_name: 349418-098-R-PDC complex spheroid viability
viability, T/C: 111%

compound: O=C(C=Cn1cnc(-c2cc(C(F)(F)F)cc(C(F)(F)F)c2)n1)NNc1cnccn1 + NC1CC1c1ccc(-c2cccc(O)c2)cc1
system_name: 349418-098-R-PDC complex spheroid viability
viability, T/C: 7.13%

compound: O=C(c1cc(Cc2n[nH]c(=O)c3ccccc23)ccc1F)N1CCN(C(=O)C2CC2)CC1 + NC1CC1c1ccc(-c2cccc(O)c2)cc1
system_name: 349418-098-R-PDC complex spheroid viability
viability, T/C: 116%

compound: CC(C)c1c(-c2ccccc2)nc2c(C#N)c[nH]n2c1=O + NC1CC1c1ccc(-c2cccc(O)c2)cc1
system_name: 349418-098-R-PDC complex spheroid viability
viability, T/C: 114%

Would you mind telling me what viability, T/C value was observed for Cn1ncnc1C1c2n[nH]c(=O)c3cc(F)cc(c23)NC1c1ccc(F)cc1 (stereo unspecified) + NC1CC1c1ccc(-c2cccc(O)c2)cc1 ? 108%

Try this compound too: CC(C)CC(NC(=O)CNC(=O)c1cc(Cl)ccc1Cl)B1OC(=O)CC(CC(=O)O)(C(=O)O)O1 (stereo unspecified) + NC1CCC(NC2CC2c2ccccc2)CC1 1.3%

Also, CC1(C)CCC(CN2CCN(c3ccc(C(=O)NS(=O)(=O)c4ccc(NCC5CCOCC5)c([N+](=O)[O-])c4)c(Oc4cnc5[nH]ccc5c4)c3)CC2)=C(c2ccc(Cl)cc2)C1 + NC1CC1c1ccc(-c2cccc(O)c2)cc1 please. 119%

Queued: CC[C@@]1(O)C(=O)OCc2c1cc1n(c2=O)Cc2cc3c(CN(C)C)c(O)ccc3nc2-1 + NC1CCC(NC2CC2c2ccccc2)CC1 5.11%

Now this one: CC[C@@]1(O)C(=O)OCc2c1cc1n(c2=O)Cc2cc3c(CN(C)C)c(O)ccc3nc2-1 + NC1CC1c1ccc(-c2cccc(O)c2)cc1 5.15%

###

# Tested on: 349418-098-R-PDC complex spheroid viability
# measurement_protocol: Anticancer human tumor 349418-098-R-PDC cell line growth inhibition; active = viability on the fitted dose curve at most 10% of control; inactive = the rest;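 note: spheroids exposed to agents for seven days before readout; 100% = DMSO vehicle control wells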
# assay_context: second compound 3.16 µM; first compound 0.000949 µM
Pick one: active, inactive

Use these answered entries as a reference point.
compound: Nc1ncn(C2CC(O)C(CO)S2)c(=O)n1 (stereo unspecified) + NC1CCC(NC2CC2c2ccccc2)CC1
assigned_label: inactive
//
compound: Nc1ncn(C2CC(O)C(CO)S2)c(=O)n1 (stereo unspecified) + NC1CC1c1ccc(-c2cccc(O)c2)cc1
assigned_label: inactive
//
compound: Nc1ccn(C2OC(CO)C(O)C2(F)F)c(=O)n1 (stereo unspecified) + NC1CC1c1ccc(-c2cccc(O)c2)cc1
assigned_label: inactive
//
compound: CCc1c2c(nc3ccc(O)cc13)-c1cc3c(c(=O)n1C2)COC(=O)[C@]3(O)CC + NC1CC1c1ccc(-c2cccc(O)c2)cc1
assigned_label: active
//
compound: CCc1c2c(nc3ccc(O)cc13)-c1cc3c(c(=O)n1C2)COC(=O)[C@]3(O)CC + NC1CCC(NC2CC2c2ccccc2)CC1
assigned_label: active

With those in mind, consider the next compound.
Short answer needed: outcome of this test for Nc1ccn(C2OC(CO)C(O)C2(F)F)c(=O)n1 (stereo unspecified) + NC1CCC(NC2CC2c2ccccc2)CC1 ? active

###

# Test system: 349418-098-R-PDC complex spheroid viability
# measurement_protocol: Anticancer human tumor 349418-098-R-PDC cell line growth inhibition;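 note: spheroids exposed to agents for seven days before readout; 100% = DMSO vehicle control wells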
# assay_context: second compound 0.1 µM; first compound 0.00949 µM; hits give low values
Here, each record is paired with measured viability, T/C data.
Hi! Could you send only the number? It should be in %, unit omitted.

Check out these entries, answers already filled in.
molecule: CCN(c1cc(-c2ccc(CN3CCOCC3)cc2)cc(C(=O)NCc2c(C)cc(C)[nH]c2=O)c1C)C1CCOCC1 + NC1CC1c1ccc(-c2cccc(O)c2)cc1
system_name: 349418-098-R-PDC complex spheroid viability
unit_abbrev: %
viability, T/C: 116
--
molecule: O=C(C=Cc1cccc(S(=O)(=O)Nc2ccccc2)c1)NO + NC1CCC(NC2CC2c2ccccc2)CC1
system_name: 349418-098-R-PDC complex spheroid viability
unit_abbrev: %
viability, T/C: 100
--
molecule: Nc1ncn(C2CC(O)C(CO)S2)c(=O)n1 (centres undefined) + NC1CCC(NC2CC2c2ccccc2)CC1
system_name: 349418-098-R-PDC complex spheroid viability
unit_abbrev: %
viability, T/C: 71.7

Now look at this entry.
Quick one: viability, T/C of NS(=O)(=O)OCC1CC(n2ccc3c(NC4CCc5ccccc54)ncnc32)CC1O (centres undefined) + NC1CC1c1ccc(-c2cccc(O)c2)cc1 ? 116

###

# Tested on: 349418-098-R-PDC complex spheroid viability
# measurement_protocol: Anticancer human tumor 349418-098-R-PDC cell line growth inhibition;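 note: spheroids exposed to agents for seven days before readout; 100% = DMSO vehicle control wells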
# assay_context: second compound 0.1 µM; first compound 0.1 µM; hits give low values
reported_property: viability, T/C (%)
Form entry: value (%) — number only.

Study these solved cases before continuing.
molecule: CC1COCCN1c1cc(-c2ccnn2C)c2ccnc(-c3ccn[nH]3)c2n1 (stereo unspecified) + NC1CCC(NC2CC2c2ccccc2)CC1
reported_property: viability, T/C
unit_abbrev: %
result_number: 9.57
--
molecule: CC1COCCN1c1cc(-c2ccnn2C)c2ccnc(-c3ccn[nH]3)c2n1 (stereo unspecified) + NC1CC1c1ccc(-c2cccc(O)c2)cc1
reported_property: viability, T/C
unit_abbrev: %
result_number: 6.42
--
molecule: CC1(C)CCC(CN2CCN(c3ccc(C(=O)NS(=O)(=O)c4ccc(NCC5CCOCC5)c([N+](=O)[O-])c4)c(Oc4cnc5[nH]ccc5c4)c3)CC2)=C(c2ccc(Cl)cc2)C1 + NC1CC1c1ccc(-c2cccc(O)c2)cc1
reported_property: viability, T/C
unit_abbrev: %
result_number: 106

Need viability, T/C, item CC1(C)CCC(CN2CCN(c3ccc(C(=O)NS(=O)(=O)c4ccc(NCC5CCOCC5)c([N+](=O)[O-])c4)c(Oc4cnc5[nH]ccc5c4)c3)CC2)=C(c2ccc(Cl)cc2)C1 + NC1CCC(NC2CC2c2ccccc2)CC1 110

Next molecule up: CC(C)c1c(-c2ccccc2)nc2c(C#N)c[nH]n2c1=O + NC1CC1c1ccc(-c2cccc(O)c2)cc1 122

Query O=C(C=Cn1cnc(-c2cc(C(F)(F)F)cc(C(F)(F)F)c2)n1)NNc1cnccn1 + NC1CCC(NC2CC2c2ccccc2)CC1 next 4.2

###

# System: 349418-098-R-PDC complex spheroid viability
# measurement_protocol: Anticancer human tumor 349418-098-R-PDC cell line growth inhibition; active = viability on the fitted dose curve at most 10% of control; inactive = the rest;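 note: spheroids exposed to agents for seven days before readout; 100% = DMSO vehicle control wells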
# assay_context: second compound 1 µM; first compound 0.01 µM
In this exercise, the only acceptable responses are active, inactive

compound: Cn1ncnc1C1c2n[nH]c(=O)c3cc(F)cc(c23)NC1c1ccc(F)cc1 (stereo unspecified) + NC1CCC(NC2CC2c2ccccc2)CC1
assigned_label: inactive
--
compound: CC(C)CC(NC(=O)CNC(=O)c1cc(Cl)ccc1Cl)B1OC(=O)CC(CC(=O)O)(C(=O)O)O1 (stereo unspecified) + NC1CCC(NC2CC2c2ccccc2)CC1
assigned_label: active
--
compound: Nc1ncn(C2CC(O)C(CO)O2)c(=O)n1 (stereo unspecified) + NC1CC1c1ccc(-c2cccc(O)c2)cc1
assigned_label: inactive
--
compound: O=C(C=Cn1cnc(-c2cc(C(F)(F)F)cc(C(F)(F)F)c2)n1)NNc1cnccn1 + NC1CCC(NC2CC2c2ccccc2)CC1
assigned_label: active
--
compound: CC(C)CC(NC(=O)C(Cc1ccccc1)NC(=O)c1cnccn1)B(O)O (stereo unspecified) + NC1CC1c1ccc(-c2cccc(O)c2)cc1
assigned_label: active

Could you check what this test reported for Cn1ncnc1C1c2n[nH]c(=O)c3cc(F)cc(c23)NC1c1ccc(F)cc1 (stereo unspecified) + NC1CC1c1ccc(-c2cccc(O)c2)cc1 ? inactive

Another: Nc1ncn(C2CC(O)C(CO)O2)c(=O)n1 (stereo unspecified) + NC1CCC(NC2CC2c2ccccc2)CC1 inactive

Follow-up item: COc1cc(Nc2ncc3c(n2)-c2ccc(Cl)cc2C(c2c(F)cccc2OC)=NC3)ccc1C(=O)O + NC1CC1c1ccc(-c2cccc(O)c2)cc1 inactive

Another compound to check: CC1COCCN1c1cc(-c2ccnn2C)c2ccnc(-c3ccn[nH]3)c2n1 (stereo unspecified) + NC1CCC(NC2CC2c2ccccc2)CC1 inactive

// repeat for COc1cc(Nc2ncc3c(n2)-c2ccc(Cl)cc2C(c2c(F)cccc2OC)=NC3)ccc1C(=O)O + NC1CCC(NC2CC2c2ccccc2)CC1 and report inactive

Queued: CC(C)CC(NC(=O)C(Cc1ccccc1)NC(=O)c1cnccn1)B(O)O (stereo unspecified) + NC1CCC(NC2CC2c2ccccc2)CC1 active

And for CC1COCCN1c1cc(-c2ccnn2C)c2ccnc(-c3ccn[nH]3)c2n1 (stereo unspecified) + NC1CC1c1ccc(-c2cccc(O)c2)cc1 ? inactive

# repeat for CC(C)CC(NC(=O)CNC(=O)c1cc(Cl)ccc1Cl)B1OC(=O)CC(CC(=O)O)(C(=O)O)O1 (stereo unspecified) + NC1CC1c1ccc(-c2cccc(O)c2)cc1 active

Another compound to check: CC[C@@]1(O)C(=O)OCc2c1cc1n(c2=O)Cc2cc3c(CN(C)C)c(O)ccc3nc2-1 + NC1CC1c1ccc(-c2cccc(O)c2)cc1 active

Another compound: CC[C@@]1(O)C(=O)OCc2c1cc1n(c2=O)Cc2cc3c(CN(C)C)c(O)ccc3nc2-1 + NC1CCC(NC2CC2c2ccccc2)CC1 active

Then O=C(C=Cn1cnc(-c2cc(C(F)(F)F)cc(C(F)(F)F)c2)n1)NNc1cnccn1 + NC1CC1c1ccc(-c2cccc(O)c2)cc1 ? inactive
